Sourced from PubChem BioAssay (NCI)

# Test system: SF-295 CNS
# method.summary: NCI tumour cell line growth inhibition, 48 h
Where a SMILES comes first, the peptide text is derived from it. The star is where a group is joined. Cbz = O=C(OCc1ccccc1)*

- compound: "Cc1ccc(-n2c(N)c(C#N)c3[nH]nc(N)c3c2=O)cc1"
  target.system: "SF-295 CNS"
  measurement.units: "µM"
  censor.symbol: ">"
  TGI: 100
- compound: "C1CN2CCN3CCN4CCN1[P+]243"
  target.system: "SF-295 CNS"
  measurement.units: "µM"
  censor.symbol: ">"
  TGI: 100
- compound: "CCCCNC(=S)Nc1nc(C(=O)NNC(=S)Nc2ccccc2)cs1"
  target.system: "SF-295 CNS"
  measurement.units: "µM"
  censor.symbol: ">"
  TGI: 100
- compound: "O=C(O)CCC(NC(=O)OCc1ccccc1)C(=O)NC(Cc1cnc[nH]1)C(=O)O (stereo not drawn) (Cbz-Glu-His-OH; configuration not given here)"
  target.system: "SF-295 CNS"
  measurement.units: "µM"
  censor.symbol: ">"
  TGI: 100
- compound: "Cn1cc(-c2csc(-c3c[nH]c4ccc(F)cc34)n2)c2cnccc21"
  target.system: "SF-295 CNS"
  measurement.units: "µM"
  censor.symbol: "="
  TGI: 3.25
- compound: "O=C(O)[C@@H]1CCS(=O)(=O)N1"
  target.system: "SF-295 CNS"
  measurement.units: "µM"
  censor.symbol: ">"
  TGI: 100
- compound: "O=C(Nc1ccncc1)C(=O)c1cn(S(=O)(=O)c2ccc(F)cc2)c2ccccc12"
  target.system: "SF-295 CNS"
  measurement.units: "µM"
  censor.symbol: "="
  TGI: 38.1
- compound: "COc1ccc(S(=O)(=O)c2nnc(S(=O)(=O)Cc3ccccc3)s2)cc1"
  target.system: "SF-295 CNS"
  measurement.units: "µM"
  censor.symbol: "="
  TGI: 90.1
- compound: "COc1ccc2cc(/C=N/NC(=O)Nc3ccccc3)ccc2c1"
  target.system: "SF-295 CNS"
  measurement.units: "µM"
  censor.symbol: ">"
  TGI: 100
- compound: "C[C@H](CCC(=O)O)[C@H]1CC[C@H]2[C@@H]3CC[C@@H]4C[C@H](O)CC[C@]4(C)[C@H]3C[C@H](O)[C@]12C"
  target.system: "SF-295 CNS"
  measurement.units: "µM"
  censor.symbol: "="
  TGI: 38.9

----------
# System: MALME-3M melanoma
# method.summary: NCI tumour cell line growth inhibition, 48 h
Recorded measurements of TGI, one per entry

- compound: "CN=C1CC2c3cc(OC)c(OC)cc3CCN2C2=C1C(=O)CC(C)(C)C2 (stereo unspecified)"
  target.system: "MALME-3M melanoma"
  TGI: "> 100 µM"
- compound: "C[C@H](CCC(=O)O)[C@H]1CC[C@H]2[C@@H]3CC[C@@H]4C[C@H](O)CC[C@]4(C)[C@H]3C[C@H](O)[C@]12C"
  target.system: "MALME-3M melanoma"
  TGI: "> 100 µM"
- compound: "CCOC(=O)NC(Nc1ccc(S(=O)(=O)Nc2nc(C)cc(C)n2)cc1)(C(=O)OCC)C(F)(F)F (stereo unspecified)"
  target.system: "MALME-3M melanoma"
  TGI: "> 100 µM"
- compound: "CCC[CH2][Sn]([Cl])([CH2]CCC)[CH2]CCC"
  target.system: "MALME-3M melanoma"
  TGI: "0.265 µM"
- compound: "CN(C)CCCN1CCC2(CCC(C(C)(C)C)CC2)CC1"
  target.system: "MALME-3M melanoma"
  TGI: "3.4 µM"
- compound: "Nc1ncnc2c1ncn2[C@@H]1C[C@@H]1CO"
  target.system: "MALME-3M melanoma"
  TGI: "> 100 µM"
- compound: "CC(=O)c1sc(Nc2nnc(-c3ccc(-c4nnc(Nc5nc(C)c(C(C)=O)s5)o4)cc3)o2)nc1C"
  target.system: "MALME-3M melanoma"
  TGI: "> 100 µM"
- compound: "Cc1nn(-c2ccccc2)c2c1C(c1ccc(Cl)cc1)NC(=S)N2 (stereo unspecified)"
  target.system: "MALME-3M melanoma"
  TGI: "93.9 µM"
- compound: "O=c1ccn([C@H]2CSC[C@@H](CO)C2)c(=O)[nH]1"
  target.system: "MALME-3M melanoma"
  TGI: "> 100 µM"
- compound: "CC(=O)c1c(C)n([O-])c2cc(Cl)c(Cl)cc2[n+]1=O"
  target.system: "MALME-3M melanoma"
  TGI: "26.4 µM"
- compound: "CC12CC(c3ccccc3O1)C(C(=O)Nc1ccc(Cl)cc1Cl)C(=O)N2 (stereo unspecified)"
  target.system: "MALME-3M melanoma"
  TGI: "89.8 µM"
- compound: "COc1c(OC[C@H](O)CN2CCOCC2)ccc2c3n(c(=NC(=O)c4cccnc4C)nc12)CCN3"
  target.system: "MALME-3M melanoma"
  TGI: "> 50 µM"
- compound: "Cc1cc(Cl)ccc1NC(=O)C(=O)Cc1nc2ccccc2o1"
  target.system: "MALME-3M melanoma"
  TGI: "> 100 µM"
- compound: "COc1cc2c3c(n(C)c(=O)c2cc1OC)-c1cc2c(cc1/C3=C\\CN)OCO2"
  target.system: "MALME-3M melanoma"
  TGI: "> 40.4 µM"
- compound: "CCOC(=O)Nc1ccc(C)c(NC(=O)OCC)c1"
  target.system: "MALME-3M melanoma"
  TGI: "> 100 µM"
- compound: "O=C(/C=C/c1cccc2ccccc12)c1ccccc1Cl"
  target.system: "MALME-3M melanoma"
  TGI: "30.2 µM"
- compound: "O=C1C(c2c(O)[nH]c3ccc(F)cc23)=Nc2ccccc21"
  target.system: "MALME-3M melanoma"
  TGI: "> 100 µM"
- compound: "CN(C)C(n1cc2c(c1)-c1ccc(Cl)cc1C(c1ccccc1F)=NC2)n1cc2c(c1)-c1ccc(Cl)cc1C(c1ccccc1F)=NC2"
  target.system: "MALME-3M melanoma"
  TGI: "> 100 µM"
- compound: "CCOC(=O)CN1C(=O)c2ccc(NC(=O)C(=O)O)cc2S1(=O)=O"
  target.system: "MALME-3M melanoma"
  TGI: "> 100 µM"
- compound: "CCCCCCOC(=O)/C=C/[C@]1(CO)C/C(=C/CC(C(C)C)C(C)C)C(=O)O1"
  target.system: "MALME-3M melanoma"
  TGI: "25.7 µM"
- compound: "CCCCCCc1cc2cc(C(=O)Nc3ccccc3)c(=N)oc2cc1O"
  target.system: "MALME-3M melanoma"
  TGI: "5.6 µM"
